All values here come from ChEMBL document CHEMBL4689842.

compounds and their reported Growth Rate
Test system: HEK-293T
Procedure Summary: Incucyte cell viability with HEK293T; further: filed as whole numbers so only -1 and 0 and 1 occur
Type: toxicity, cell-based
Applied Conditions: human, 12 h, 10 µM, compound concentration 10 uM, replicate number 1, timepoint 12 hours

# Compound, Growth Rate
measured = [
    ("Cc1cc([C@@H](C)Nc2cccc(-c3cc(C)c(C(=O)N[C@@H](C)C(=O)O)c(C)c3)c2)ccc1Cl", 0),
    ("CCOc1cc(C(=O)N2CCC(N3CCN(C)CC3)CC2)ccc1Nc1ncc2c(n1)N(C1CCCC1)c1ccccc1C(=O)N2C", 0),
    ("Cc1c(C(=O)O)cc(-c2ccc(C3CCNCC3)cc2)c2ccc(-c3ccc(C(F)(F)F)cc3)cc12.Cl", 0),
    ("CCc1cccc(CC)c1NC(=O)c1nn(C)c2c1CCc1cnc(Nc3ccc(C(=O)NC4CCN(C)CC4)cc3OC(F)(F)F)nc1-2", 0),
    ("Cn1nc(C(F)(F)F)cc1-c1cnc(N2CCc3cc(S(=O)(=O)Nc4c(F)cc(Cl)cc4F)cc(N4CCCC4=O)c32)nc1 [TP-020]", 0),
    ("O=C(Nc1cccnn1)N1CCC(=Cc2cccc(Oc3ccc(C(F)(F)F)cn3)c2)CC1", 0),
    ("CCN1CCN(c2ccc(Nc3cc(N(C)C(=O)Nc4c(Cl)c(OC)cc(OC)c4Cl)ncn3)cc2)CC1 [INFIGRATINIB]", 0),
    ("CCCc1c(OCCCOc2ccc(OCC(=O)O)cc2)ccc(C(C)=O)c1O", 1),
    ("N#Cc1c[nH]c2c(C(=O)N3CCN(CCc4ccc(F)cc4)CC3)cccc12 [PRUVANSERIN]", 0),
    ("Cc1nnc2c3ccccc3c(N[C@@H](C)[C@H](c3ccccc3)N(C)C)nn12", 0),
    ("C[C@@H](c1cccc(C#N)c1)n1cc(Cl)cc(C(N)=O)c1=N.Cl", 0),
    ("CN1CCN(C(=O)C(C)(C)c2ccc(C(=O)Nc3cn4cc(-c5ccncc5)ccc4n3)cc2)CC1 [T3-CLK]", 0),
    ("Cc1nnn(-c2ccc(-c3ccc(C4(C(=O)O)CC4)cc3)cc2)c1NC(=O)O[C@H](C)c1ccccc1", 0),
    ("CCC(=N\\O)/C(C)=C/c1ccc(F)c(C)c1 [A-226]", 0),
    ("Cl.Oc1ccc2c3c1O[C@H]1c4[nH]c5c(c4C[C@@]4(O)[C@@H](C2)N(CC2CC2)CC[C@]314)C[C@@]1(O)[C@H]2Cc3ccc(O)c4c3[C@@]1(CCN2CC1CC1)[C@H]5O4", 1),
    ("CN1C2CCC1CC(OC(c1ccc(F)cc1)c1ccc(F)cc1)C2.Cl (configuration not stated)", 0),
    ("Cl.O=C(c1ccc(Nc2nccc(-c3cc4ccccc4s3)n2)cc1)N1CCC(N2CCCC2)CC1", 0),
]

----------
compounds and their reported Population Hoechst High Intensity Objects (%)
Test system: U2OS
Procedure Summary: Multiplex assay against U2OS
Type: toxicity, cell-based
Applied Conditions: human, 48 h, 1 µM, compound concentration 1 uM, replicate 2
Readout Name: Population Hoechst High Intensity Objects (%)

# Compound, Result Unit, Value Measured
rows = [
    ("Cc1cc(C)c(S(=O)(=O)N(Cc2ccc(-c3cccc(S(C)(=O)=O)c3)cc2)Cc2ccc(C(F)(F)F)o2)c(C)c1", "%", 2),
    ("CCn1c(=O)c(-c2ccc(-c3cncs3)cc2Cl)cc2cnc(Nc3ccc(N4CCN(C)CC4)cc3)nc21", "%", 8),
    ("C=C1/C(=C\\C=C2/CCC[C@]3(C)[C@@H]([C@H](C)/C=C/[C@H](C)C(C)C)CC[C@@H]23)C[C@@H](O)C[C@@H]1O", "%", 1),
    ("CN1CCC(=C2c3ccccc3CC(=O)c3sccc32)CC1.O=C(O)/C=C/C(=O)O [KETOTIFEN FUMARATE]", "%", 2),
    ("O=C(Nc1ccc(-n2nc(-c3cccnc3)cc2C(F)(F)F)cn1)c1ccc(-c2ccccc2)c(F)c1", "%", 3),
    ("CN(C)C(=O)C(CCN1CCC(O)(c2ccc(Cl)cc2)CC1)(c1ccccc1)c1ccccc1.Cl [LOPERAMIDE HYDROCHLORIDE]", "%", 3),
    ("CCOC(=O)c1c(C)[nH]c2ccc3c(c12)CN1CCc2cc(OC)ccc2C1O3 (configuration not stated)", "%", 7),
]
